The reported numbers originate from ChEMBL document CHEMBL1140920.

# target_of_assay: Mu-type opioid receptor (Homo sapiens, UniProt P35372)
# Sequence (P35372 whole entry): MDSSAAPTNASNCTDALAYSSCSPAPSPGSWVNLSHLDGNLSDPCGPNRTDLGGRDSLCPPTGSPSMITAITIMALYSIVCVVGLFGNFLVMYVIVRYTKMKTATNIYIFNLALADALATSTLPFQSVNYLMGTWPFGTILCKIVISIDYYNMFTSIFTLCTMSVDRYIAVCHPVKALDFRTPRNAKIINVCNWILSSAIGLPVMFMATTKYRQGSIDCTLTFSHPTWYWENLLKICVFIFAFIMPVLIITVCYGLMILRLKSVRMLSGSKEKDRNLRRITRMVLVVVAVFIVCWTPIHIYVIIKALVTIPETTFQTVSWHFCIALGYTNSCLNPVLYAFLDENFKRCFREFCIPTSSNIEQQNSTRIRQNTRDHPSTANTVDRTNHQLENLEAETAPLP
readout_name: IC50 (nM)

1. O=C(N[C@H]1CC[C@@]2(O)[C@H]3Cc4ccc(O)c5c4[C@@]2(CCN3CC2CC2)[C@H]1O5)c1cc2ccccc2cn1    5.42

###

Reported IC50 by item:
# method_summary: Binding affinity to mu opioid W318A mutant receptor expressed in CHO cells
# Format: cell-based
readout_name: IC50

1. O=C(N[C@@H]1CC[C@@]2(O)[C@H]3Cc4ccc(O)c5c4[C@@]2(CCN3CC2CC2)[C@H]1O5)c1ccncc1    > 1000 nM
2. O=C(N[C@H]1CC[C@@]2(O)[C@H]3Cc4ccc(O)c5c4[C@@]2(CCN3CC2CC2)[C@H]1O5)c1cc2ccccc2cn1    > 1000 nM
